These entries and their values trace back to patent US11684606B2.

# measured_on: mCCR6 (Mus musculus)
# Sequence (O54689 whole entry): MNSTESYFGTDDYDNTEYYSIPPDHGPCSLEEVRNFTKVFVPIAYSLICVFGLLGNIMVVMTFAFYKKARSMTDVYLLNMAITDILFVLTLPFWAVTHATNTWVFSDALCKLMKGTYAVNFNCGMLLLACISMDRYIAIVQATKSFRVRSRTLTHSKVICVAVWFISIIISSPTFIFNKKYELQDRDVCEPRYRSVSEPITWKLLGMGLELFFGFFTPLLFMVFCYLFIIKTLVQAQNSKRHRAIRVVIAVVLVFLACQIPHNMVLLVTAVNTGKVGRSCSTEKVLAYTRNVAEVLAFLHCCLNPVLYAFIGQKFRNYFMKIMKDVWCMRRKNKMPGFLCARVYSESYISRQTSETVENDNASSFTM
# assay_overview: In vitro inhibition of chemotaxis, mCCR6-transfected BaF3 cells to mCCL20
# cond: in 100% serum; read-out: IC50 on mouse CCR6, in vitro inhibition of chemotaxis
measurement_label: IC50

Lookup result for CCC(C)(C)[C@@H](Nc1c(Nc2c(F)ccc3c2C(=O)N[C@H]3C)c(=O)c1=O)c1ccc(C)o1 [Compound 1.136] ; measured IC50: 0.01 µM

* * *

# assay_overview: Plasma concentrations at trough after s.c. q.d. dosing
# Format: in vivo
# cond: Balb/c, mouse, subcutaneous, 90 mg/kg s.c. q.d. in 1% HPMC, 24 hours post final dose (day 5), mice
measurement_label: concentration at 24 h

Lookup result for `CCC(C)(C)[C@@H](Nc1c(Nc2c(F)ccc3c2C(=O)N[C@H]3C)c(=O)c1=O)c1ccc(C)o1` ; measured concentration at 24 h: 0.973 µg/mL

* * *

# measured_on: mCCR2 (Mus musculus, UniProt P51683)
# Construct: endogenous in cells
# Sequence (P51683 whole entry): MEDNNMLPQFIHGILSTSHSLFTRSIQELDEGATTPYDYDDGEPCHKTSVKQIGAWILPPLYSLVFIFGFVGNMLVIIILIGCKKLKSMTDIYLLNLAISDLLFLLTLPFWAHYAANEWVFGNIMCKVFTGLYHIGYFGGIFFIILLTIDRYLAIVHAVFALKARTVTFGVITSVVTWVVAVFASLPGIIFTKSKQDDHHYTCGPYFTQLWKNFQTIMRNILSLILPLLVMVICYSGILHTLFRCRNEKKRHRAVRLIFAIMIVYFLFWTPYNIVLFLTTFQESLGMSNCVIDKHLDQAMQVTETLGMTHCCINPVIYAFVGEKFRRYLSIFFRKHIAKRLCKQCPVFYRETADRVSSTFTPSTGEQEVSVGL
# assay_overview: Chemotaxis of mouse bone marrow cells to mCCL2
# cond: in serum; unit inferred
measurement_label: IC50

Lookup result for `CCC(C)(C)[C@@H](Nc1c(Nc2c(F)ccc3c2C(=O)N[C@H]3C)c(=O)c1=O)c1ccc(C)o1` ; measured IC50: > 10 µM

* * *

# measured_on: mCCR9 (Mus musculus, UniProt Q9WUT7)
# Construct: endogenous in cells
# Sequence (Q9WUT7 whole entry): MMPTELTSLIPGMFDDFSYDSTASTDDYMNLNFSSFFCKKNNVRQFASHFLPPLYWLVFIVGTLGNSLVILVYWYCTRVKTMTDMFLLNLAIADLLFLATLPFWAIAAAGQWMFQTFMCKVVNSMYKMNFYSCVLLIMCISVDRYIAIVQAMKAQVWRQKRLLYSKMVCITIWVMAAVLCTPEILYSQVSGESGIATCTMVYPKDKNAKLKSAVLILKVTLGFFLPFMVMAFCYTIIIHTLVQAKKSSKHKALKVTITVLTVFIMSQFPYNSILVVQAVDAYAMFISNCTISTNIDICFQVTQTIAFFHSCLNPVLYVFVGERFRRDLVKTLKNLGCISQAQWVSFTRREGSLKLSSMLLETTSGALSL
# assay_overview: Chemotaxis of mouse thymocytes to mCCL25
# cond: in serum; unit inferred
measurement_label: IC50

Tested system mCCR9 (Mus musculus, UniProt Q9WUT7); IC50 recorded for `CCC(C)(C)[C@@H](Nc1c(Nc2c(F)ccc3c2C(=O)N[C@H]3C)c(=O)c1=O)c1ccc(C)o1` was > 10 µM

* * *

# assay_overview: Plasma concentrations at trough after s.c. q.d. dosing
# Type: in vivo
# cond: Balb/c, mouse, subcutaneous, 60 mg/kg s.c. q.d. in 1% HPMC, 24 hours post final dose (day 5), mice
measurement_label: concentration at 24 h (ng/mL)
Numbers only here, please. The scale is ng/mL.

Lookup result for CCC(C)(C)[C@@H](Nc1c(Nc2c(F)ccc3c2C(=O)N[C@H]3C)c(=O)c1=O)c1ccc(C)o1 [Compound 1.136] ; measured concentration at 24 h: 323

* * *

# measured_on: mCXCR4 (Mus musculus)
# Construct: endogenous in cells
# Sequence (P70658 whole entry): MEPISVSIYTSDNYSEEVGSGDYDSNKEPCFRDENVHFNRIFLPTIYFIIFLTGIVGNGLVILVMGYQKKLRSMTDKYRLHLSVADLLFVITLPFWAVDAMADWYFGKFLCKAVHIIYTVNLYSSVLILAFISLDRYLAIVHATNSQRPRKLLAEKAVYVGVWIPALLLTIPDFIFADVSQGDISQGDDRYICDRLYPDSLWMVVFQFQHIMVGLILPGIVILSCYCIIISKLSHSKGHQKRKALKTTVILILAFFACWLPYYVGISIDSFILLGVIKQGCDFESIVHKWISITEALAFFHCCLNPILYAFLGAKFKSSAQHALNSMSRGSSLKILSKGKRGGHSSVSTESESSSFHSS
# assay_overview: Chemotaxis of mouse BaF3-WT to mCXCL12
# cond: in serum; unit inferred
pIC50: −log10 of the molar value.
measurement_label: pIC50

Lookup result for `CCC(C)(C)[C@@H](Nc1c(Nc2c(F)ccc3c2C(=O)N[C@H]3C)c(=O)c1=O)c1ccc(C)o1` ; measured pIC50: < 5.00

* * *

# measured_on: mCXCR2 (Mus musculus, UniProt P35343)
# Construct: endogenous in cells
# Sequence (P35343 whole entry): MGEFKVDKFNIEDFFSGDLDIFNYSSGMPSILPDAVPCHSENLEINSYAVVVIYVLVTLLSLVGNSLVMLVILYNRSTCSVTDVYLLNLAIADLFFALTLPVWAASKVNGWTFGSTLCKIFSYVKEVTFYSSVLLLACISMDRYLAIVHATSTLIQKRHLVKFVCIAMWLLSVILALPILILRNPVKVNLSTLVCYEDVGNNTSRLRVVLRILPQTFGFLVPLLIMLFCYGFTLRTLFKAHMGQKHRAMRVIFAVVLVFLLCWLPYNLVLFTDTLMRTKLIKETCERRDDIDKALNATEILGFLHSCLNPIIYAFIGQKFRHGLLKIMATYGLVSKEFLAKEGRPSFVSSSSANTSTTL
# assay_overview: In vitro inhibition of chemotaxis, mouse bone marrow cells to mCXCL1
# cond: in 100% serum; read-out: IC50 on mouse CXCR2, in vitro inhibition of chemotaxis
measurement_label: IC50 (µM)
Numbers only here, please. The scale is µM.

Lookup result for `CCC(C)(C)[C@@H](Nc1c(Nc2c(F)ccc3c2C(=O)N[C@H]3C)c(=O)c1=O)c1ccc(C)o1` ; measured IC50: 0.02

* * *

# assay_overview: Plasma concentrations at trough after s.c. q.d. dosing
# Type: in vivo
# cond: Balb/c, mouse, subcutaneous, 30 mg/kg s.c. q.d. in 1% HPMC, 24 hours post final dose (day 5), mice
# Protocol: For in vivo dosing, mice were dosed subcutaneously with Compound 1.136 once daily (s.c. q.d. in 1% HPMC) at 90 mg/kg unless stated otherwise, starting at day 0 of a study. […] The minimum antagonist concentration (at trough) to fully cover a gradient-sensing chemoattractant receptor has been determined to correspond with the IC90 concentration (Schall, T. J., and A. E. Proudfoot. 2011. Overcoming hurdles in developing successful drugs targeting chemokine receptors. Nat Rev Immunol 11: 355-363).
measurement_label: concentration at 24 h

Lookup result for `CCC(C)(C)[C@@H](Nc1c(Nc2c(F)ccc3c2C(=O)N[C@H]3C)c(=O)c1=O)c1ccc(C)o1` ; measured concentration at 24 h: 267 ng/mL
